EXPERIMENTAL_ENDPOINT: boiling point (°C)
Numeric only. Scale: °C

Take a look at these entries with their results.
> print(dat)
           compound  experimental.endpoint  measured.result
1  CCC(=O)Nc1ccccc1          boiling point              222
2        Oc1ccccc1F          boiling point              152

IN: What value of measured boiling point is listed for CCOC(=O)CCl ?
OUT: 144

IN: What value of measured boiling point is listed for CC(C)COCC(C)O (stereo not given) ?
OUT: 165

IN: What value of measured boiling point is listed for CC(C)(C)C1CCCCC1 ?
OUT: 172

IN: What value of measured boiling point is listed for Cc1cccc2c1C=CC2 ?
OUT: 209

IN: What value of measured boiling point is listed for COc1ccc(C)cc1N ?
OUT: 235

IN: What value of measured boiling point is listed for CCOC(=O)C(CC)C(C)=O (stereo not given) ?
OUT: 198

---

# melting point annotations
Numeric only. Scale: °C

> print(dat)
                              compound  experimental.endpoint  measured.result
1                COc1cc(C#N)cc(OC)c1OC          melting point             93.8
2  O=C(Nc1ccc2ncccc2c1)Nc1ccc2ncccc2c1          melting point              262
3                             CCN(O)CC          melting point               10
4         CNC(=O)OCc1cccc(COC(=O)NC)n1          melting point              136
5                       CCC/C=C/CCCCCC          melting point            -80.3
6                  Oc1ccc(Cl)c(Cl)c1Cl          melting point             83.5
7                 c1ccc2cc3ccccc3cc2c1          melting point              215
8   C[Si](C)(C)O[Si](C)(C)O[Si](C)(C)C          melting point              -80

IN: What value of measured melting point is listed for Nc1ccc(Cl)cc1N ?
OUT: 76

IN: What value of measured melting point is listed for CNC.O=C(O)COc1ccc(Cl)cc1Cl ?
OUT: 86

---

# melting point annotations
Numeric only. Scale: °C

Take a look at these entries with their results.
> print(dat)
                                chem.smiles  measure.unit  measured.result
1                            ClCCCCCCCCCCCl            °C             15.6
2                         CCCC(=O)OC(=O)CCC            °C              -75
3                   CCN(CC)C(=O)c1cccc(C)c1            °C              -45
4  Nc1ccn([C@@H]2O[C@H](CO)[C@@H](O)[C@@H]2O)c(=O)n1            °C              212
5                      CC(C)c1ccc(C(C)C)cc1            °C              -17

IN: What value of measured melting point is listed for O=C(O)COc1ccc(Cl)cc1Cl ?
OUT: 140
